- MEASURED ON: Muscarinic acetylcholine receptor M1 (Homo sapiens) (UniProt P11229)
- Sequence (P11229 whole entry): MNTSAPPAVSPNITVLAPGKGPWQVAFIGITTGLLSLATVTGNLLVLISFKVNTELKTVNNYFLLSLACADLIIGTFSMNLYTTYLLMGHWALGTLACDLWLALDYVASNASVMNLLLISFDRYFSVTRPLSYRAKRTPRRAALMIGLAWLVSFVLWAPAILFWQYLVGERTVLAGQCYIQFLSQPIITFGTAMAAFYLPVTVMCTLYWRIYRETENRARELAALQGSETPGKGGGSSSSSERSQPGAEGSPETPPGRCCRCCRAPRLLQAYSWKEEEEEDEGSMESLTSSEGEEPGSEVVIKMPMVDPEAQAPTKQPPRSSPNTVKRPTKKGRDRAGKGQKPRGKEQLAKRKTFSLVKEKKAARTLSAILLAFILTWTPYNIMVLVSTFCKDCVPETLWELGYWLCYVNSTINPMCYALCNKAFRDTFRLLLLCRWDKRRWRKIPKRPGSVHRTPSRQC
- METHOD DESCRIPTION: Positive allosteric modulation of human muscarinic M1 receptor relative to acetylcholine
Returns Fulfilled if the recorded Emax is greater than or equal to 50%, and Not fulfilled otherwise.

{"COMPOUND": "CN1CCC2(C1)C(=O)N(Cc1ccc(-c3cnn(C)c3)cc1F)c1ccccc12 (stereo in doubt; 18d)", "MEASURED ON": "Muscarinic acetylcholine receptor M1 (Homo sapiens) (UniProt P11229)", "CAT": "Fulfilled"}
{"COMPOUND": "Cn1cc(-c2ccc(CN3C(=O)C4(CCNCC4)c4ccccc43)c(F)c2)cn1", "MEASURED ON": "Muscarinic acetylcholine receptor M1 (Homo sapiens) (UniProt P11229)", "CAT": "Not fulfilled"}
{"COMPOUND": "CC(=O)N1CCC2(C1)C(=O)N(Cc1ccc(-c3cnn(C)c3)cc1F)c1ccccc12 (racemic)", "MEASURED ON": "Muscarinic acetylcholine receptor M1 (Homo sapiens) (UniProt P11229)", "CAT": "Not fulfilled"}
{"COMPOUND": "CN1CCC2(C1)C(=O)N(Cc1ccc(-c3cnn(C)c3)cc1F)c1ccccc12 (stereo in doubt; 19a)", "MEASURED ON": "Muscarinic acetylcholine receptor M1 (Homo sapiens) (UniProt P11229)", "CAT": "Fulfilled"}
{"COMPOUND": "Cn1cc(-c2ccc(CN3C(=O)C4(CCN(CCF)C4)c4ccccc43)c(F)c2)cn1 (racemic)", "MEASURED ON": "Muscarinic acetylcholine receptor M1 (Homo sapiens) (UniProt P11229)", "CAT": "Fulfilled"}
{"COMPOUND": "Cn1cc(-c2cc(F)c(CN3C(=O)C4(CCN(C5CCCC5)C4)c4ccccc43)c(F)c2)cn1 (stereo not drawn)", "MEASURED ON": "Muscarinic acetylcholine receptor M1 (Homo sapiens) (UniProt P11229)", "CAT": "Fulfilled"}
{"COMPOUND": "Cn1cc(-c2ccc(CN3C(=O)C(=O)c4ccccc43)c(F)c2)cn1", "MEASURED ON": "Muscarinic acetylcholine receptor M1 (Homo sapiens) (UniProt P11229)", "CAT": "Not fulfilled"}
{"COMPOUND": "Cn1cc(-c2ccc(CN3C(=O)C4(CCN(C(=O)C5CCC5)C4)c4ccccc43)c(F)c2)cn1 (racemic)", "MEASURED ON": "Muscarinic acetylcholine receptor M1 (Homo sapiens) (UniProt P11229)", "CAT": "Not fulfilled"}
{"COMPOUND": "Cn1cc(-c2ccc(CN3C(=O)C4(CCCO4)c4ccccc43)cc2)cn1 (stereo not drawn)", "MEASURED ON": "Muscarinic acetylcholine receptor M1 (Homo sapiens) (UniProt P11229)", "CAT": "Not fulfilled"}
{"COMPOUND": "Cn1cc(-c2ccc(CN3C(=O)C4(CCN(C5CCCCC5)C4)c4ccccc43)c(F)c2)cn1 (racemic)", "MEASURED ON": "Muscarinic acetylcholine receptor M1 (Homo sapiens) (UniProt P11229)", "CAT": "Fulfilled"}
{"COMPOUND": "Cn1cc(-c2ccc(CN3C(=O)C4(OCCO4)c4ccccc43)c(F)c2)cn1", "MEASURED ON": "Muscarinic acetylcholine receptor M1 (Homo sapiens) (UniProt P11229)", "CAT": "Fulfilled"}
{"COMPOUND": "Cn1cc(-c2ccc(CN3C(=O)C4(CCN(C5CCCC5)C4)c4ccccc43)c(F)c2)cn1 (single isomer, unassigned; 19g)", "MEASURED ON": "Muscarinic acetylcholine receptor M1 (Homo sapiens) (UniProt P11229)", "CAT": "Fulfilled"}
{"COMPOUND": "CN1CCC2(CCN(Cc3ccc(-c4cnn(C)c4)cc3F)C2=O)C1 (stereo not drawn)", "MEASURED ON": "Muscarinic acetylcholine receptor M1 (Homo sapiens) (UniProt P11229)", "CAT": "Not fulfilled"}
{"COMPOUND": "Cn1cc(-c2ccc(CN3C(=O)C4(CCN(C5CCCC5)C4)c4ccccc43)cc2F)cn1 (stereo not drawn)", "MEASURED ON": "Muscarinic acetylcholine receptor M1 (Homo sapiens) (UniProt P11229)", "CAT": "Not fulfilled"}
{"COMPOUND": "CCN1CCC2(C1)C(=O)N(Cc1ccc(-c3cnn(C)c3)cc1F)c1ccccc12 (racemic)", "MEASURED ON": "Muscarinic acetylcholine receptor M1 (Homo sapiens) (UniProt P11229)", "CAT": "Fulfilled"}
{"COMPOUND": "Cn1cc(-c2ccc(CN3C(=O)C4(CCN(C5CCCC5)C4)c4ccccc43)c(F)c2)cn1 (racemic)", "MEASURED ON": "Muscarinic acetylcholine receptor M1 (Homo sapiens) (UniProt P11229)", "CAT": "Fulfilled"}

====

- MEASURED ON: Muscarinic acetylcholine receptor M1 (Homo sapiens)
- Sequence (P11229 whole entry): as above
- METHOD DESCRIPTION: Positive allosteric modulation of human muscarinic M1 receptor
For each record, check the reported EC50: if it is below 4 µM write TRUE, else write FALSE.

{"COMPOUND": "CC(=O)N1CCC2(C1)C(=O)N(Cc1ccc(-c3cnn(C)c3)cc1F)c1ccccc12 (racemic)", "CAT": "FALSE"}
{"COMPOUND": "CN1CCCC12C(=O)N(Cc1ccc(-c3cnn(C)c3)cc1)c1ccccc12 (stereo not drawn)", "CAT": "FALSE"}
{"COMPOUND": "CN1CCC2(C1)C(=O)N(Cc1ccc(-c3cnn(C)c3)cc1F)c1ccccc12 (stereo in doubt; 18d)", "CAT": "TRUE"}
{"COMPOUND": "Cn1cc(-c2ccc(CN3C(=O)C4(CCN(C5CCCC5)C4)c4ccccc43)cc2)cn1 (stereo not drawn)", "CAT": "TRUE"}
{"COMPOUND": "CN1CCC2(CCN(Cc3ccc(-c4cnn(C)c4)cc3F)C2=O)C1 (stereo not drawn)", "CAT": "FALSE"}
{"COMPOUND": "Cn1cc(-c2cc(F)c(CN3C(=O)C4(CCN(C5CCCC5)C4)c4ccccc43)c(F)c2)cn1 (stereo not drawn)", "CAT": "TRUE"}
{"COMPOUND": "Cn1cc(-c2ccc(CN3C(=O)C4(CCN(S(C)(=O)=O)C4)c4ccccc43)c(F)c2)cn1 (racemic)", "CAT": "FALSE"}
{"COMPOUND": "Cn1cc(-c2ccc(CN3C(=O)C4(CCN(C5CCCCC5)C4)c4ccccc43)c(F)c2)cn1 (racemic)", "CAT": "FALSE"}
{"COMPOUND": "Cn1cc(-c2ccc(CN3C(=O)C4(CCNCC4)c4ccccc43)c(F)c2)cn1", "CAT": "FALSE"}
{"COMPOUND": "Cn1cc(-c2ccc(CN3C(=O)C4(CCN(C(=O)C5CCC5)C4)c4ccccc43)c(F)c2)cn1 (racemic)", "CAT": "FALSE"}
{"COMPOUND": "Cn1cc(-c2ccc(CN3C(=O)C4(CCN(C5CCCC5)C4)c4ccccc43)cc2F)cn1 (stereo not drawn)", "CAT": "TRUE"}
{"COMPOUND": "CN1CCC2(CC1)C(=O)N(Cc1ccc(-c3cnn(C)c3)cc1F)c1ccccc12", "CAT": "TRUE"}

====

- MEASURED ON: Muscarinic acetylcholine receptor M1 (Homo sapiens) (UniProt P11229)
- METHOD DESCRIPTION: Positive allosteric modulation of human muscarinic M1 receptor relative to acetylcholine

{"COMPOUND": "Cn1cc(-c2ccc(CN3C(=O)C4(CCN(C5CCC5)C4)c4ccccc43)c(F)c2)cn1 (racemic)", "Emax [%]": 48}
{"COMPOUND": "Cn1cc(-c2ccc(CN3C(=O)C4(CCN(c5ncccn5)C4)c4ccccc43)c(F)c2)cn1 (racemic)", "Emax [%]": 64}
{"COMPOUND": "Cn1cc(-c2ccc(CN3C(=O)C4(CCN(CC(F)F)C4)c4ccccc43)c(F)c2)cn1 (racemic)", "Emax [%]": 52}
{"COMPOUND": "Cn1cc(-c2ccc(CN3C(=O)C4(CCN(C5CCCC5)C4)c4ccccc43)c(F)c2F)cn1 (centres undefined)", "Emax [%]": 43}
{"COMPOUND": "Cn1cc(-c2ccc(CN3CC4(OCCO4)c4ccccc43)c(F)c2)cn1", "Emax [%]": 43}
{"COMPOUND": "Cn1cc(-c2ccc(CN3C(=O)C4(CCN(C(=O)C5CCCCC5)C4)c4ccccc43)c(F)c2)cn1 (racemic)", "Emax [%]": 50}
{"COMPOUND": "CN1CCC2(C1)C(=O)N(Cc1ccc(-c3cnn(C)c3)cc1F)c1ccccc12 (single isomer, unassigned)", "Emax [%]": 50}
{"COMPOUND": "CN1CCC2(CC1)C(=O)N(Cc1ccc(-c3cnn(C)c3)cc1F)c1ccccc12", "Emax [%]": 49}
{"COMPOUND": "Cn1cc(-c2ccc(CN3C(=O)C4(CCN(C5CCCC5)C4)c4ccccc43)cc2)cn1 (centres undefined)", "Emax [%]": 44}
{"COMPOUND": "Cc1nn(C)cc1-c1ccc(CN2C(=O)C3(CCN(C4CCCC4)C3)c3ccccc32)c(F)c1 (centres undefined)", "Emax [%]": 41}
{"COMPOUND": "CC(C)N1CCC2(C1)C(=O)N(Cc1ccc(-c3cnn(C)c3)cc1F)c1ccccc12 (racemic)", "Emax [%]": 30}
{"COMPOUND": "CN1CCCC12C(=O)N(Cc1ccc(-c3cnn(C)c3)cc1)c1ccccc12 (centres undefined)", "Emax [%]": 53}
{"COMPOUND": "Cn1cc(-c2ccc(CN3C(=O)C4(CCN(S(C)(=O)=O)C4)c4ccccc43)c(F)c2)cn1 (racemic)", "Emax [%]": 41}
{"COMPOUND": "Cn1cc(-c2ccc(CN3C(=O)C4(CCN(C5CCCC5)C4)c4ccccc43)c(F)c2)cn1 (single isomer, unassigned; 19h)", "Emax [%]": 33}
